# credit: ChEMBL document CHEMBL4765459

- study target: 3',5'-cyclic-AMP phosphodiesterase 4B (Homo sapiens, UniProt Q07343)
- Sequence (Q07343 whole entry): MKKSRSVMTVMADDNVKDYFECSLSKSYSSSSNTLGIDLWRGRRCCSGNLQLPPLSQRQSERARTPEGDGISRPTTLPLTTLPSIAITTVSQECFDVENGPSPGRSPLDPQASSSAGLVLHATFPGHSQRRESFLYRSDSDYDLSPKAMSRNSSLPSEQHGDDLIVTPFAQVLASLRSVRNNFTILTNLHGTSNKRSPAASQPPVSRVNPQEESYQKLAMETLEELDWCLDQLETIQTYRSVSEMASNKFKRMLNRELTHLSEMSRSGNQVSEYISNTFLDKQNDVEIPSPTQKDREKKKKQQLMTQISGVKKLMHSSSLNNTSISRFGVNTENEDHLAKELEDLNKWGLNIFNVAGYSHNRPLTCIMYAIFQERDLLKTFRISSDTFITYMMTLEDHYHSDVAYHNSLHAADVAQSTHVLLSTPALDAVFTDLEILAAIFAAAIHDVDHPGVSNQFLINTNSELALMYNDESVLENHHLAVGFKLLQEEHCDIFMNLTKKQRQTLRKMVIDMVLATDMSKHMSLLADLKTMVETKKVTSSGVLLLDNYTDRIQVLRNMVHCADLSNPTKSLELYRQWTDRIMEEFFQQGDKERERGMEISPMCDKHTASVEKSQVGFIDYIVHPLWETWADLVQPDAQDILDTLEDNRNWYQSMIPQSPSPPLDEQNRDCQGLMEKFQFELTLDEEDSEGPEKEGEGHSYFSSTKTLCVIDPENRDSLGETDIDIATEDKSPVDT
- test details: Inhibition of PDE4B in human PBMC assessed as reduction in LPS-induced TNFalpha release preincubated for 30 mins followed by LPS stimulation and measured after 18 hrs by TR-FRET assay
Rule for this label: 1.0 means IC50 is less than 50 µM; 0.0 means IC50 is at least 50 µM.

Answered examples (4):
N#C/N=C1/SCCN1Cc1ccc(-c2ccccc2Cl)o1	0.0
N#C/N=C1/SCCN1C(=O)c1ccc(-c2ccc(Cl)cc2)o1	1.0
N#C/N=C1/SCCN1C(=O)c1ccc(-c2c(F)cccc2F)o1	0.0
N#C/N=C1/SCCN1C(=O)c1coc(-c2cccc(Cl)c2)n1	0.0

Would you kindly verify if IC50 of `N#C/N=C1/SCCN1C(=O)c1ccc(-c2ccccc2Cl)o1` is strictly less than 50 µM?
0.0
